assay: Acid-catalyzed hydrolysis of enol ethers in THF/1 M HCl, percent remaining by GC-FID; type: physicochemical; details: THF/1M HCl (80:20 v/v), room temperature, 168 h
Decision: percent remaining, 168 h beneath 80% gives t; percent remaining, 168 h meeting or exceeding 80% gives f.

Example entries begin here.
> print(dat)
                                   compound  cat
1  CCCCCC(CC)OC=Cc1ccccc1 (stereo not drawn) [(2-(octan-3-yloxy)vinyl)benzene, reference compound]    t
2  CC(=COCCc1ccccc1)c1ccccc1 [(1-phenethoxyprop-1-en-2-yl)benzene, reference compound]    f
3  C(=Cc1ccccc1)OCCc1ccccc1 [(2-phenethoxyvinyl)benzene, reference compound]    t

Query :: Does this compound meet the criterion percent remaining, 168 h < 80%? COC(=O)C(C)(C)OC=Cc1ccccc1 [Compound 10, methyl 2-methyl-2-(styryloxy)propanoate]
Result :: f

Query :: Does this compound meet the criterion percent remaining, 168 h < 80%? CC(=COC(C)(C)CCCC(C)C)c1ccccc1 [reference compound]
Result :: t
